Recorded Fold/wt by entry
# Target Entity: mouse Mcl-1 with truncations of 151 amino acid residues at its N-terminus and 23 residues at its C-terminus (mouse) (UniProt P97287)
# Sequence (P97287 152-308): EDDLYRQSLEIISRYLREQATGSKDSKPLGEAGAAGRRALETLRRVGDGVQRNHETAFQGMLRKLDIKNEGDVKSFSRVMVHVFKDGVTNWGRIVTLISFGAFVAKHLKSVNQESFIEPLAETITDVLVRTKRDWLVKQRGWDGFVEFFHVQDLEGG
# Measurement Protocol: competition phage ELISA

[
  {
    "Binder": "QEDIIRNIARHLAQVGDSMDRSIPPE [Bid BH3 G26E, phage-displayed]",
    "Fold/wt": "1 fold"
  }
]

Retrieve Fold/wt measured for PSSTMGQVGRQLAIIGDDINRRYDSE [Bak BH3 wild type, phage-displayed] and print it. 1 fold

Retrieve Fold/wt measured for QEDIIANIARHLAQVGDSMDRSIPPG [Bid BH3 R6A, phage-displayed] and print it. 1 fold
